readout.type: IC50

Param item: `COc1cc2c(Nc3ccc(Cl)c(Cl)c3F)ncnc2cc1OC[C@@H]1C[C@@H]2CN(C)C[C@@H]2C1` ; param system: MAPKAP2 (Homo sapiens); output IC50: > 10 µM

---

pIC50: −log10 of the molar value.
readout.type: pIC50

Param item: COc1cc2c(Nc3ccc(Cl)c(Cl)c3F)ncnc2cc1OC[C@@H]1C[C@@H]2CN(C)C[C@@H]2C1 [XL-647] ; param system: MAPK2 (Homo sapiens); output pIC50: < 6.00

---

Assay: in vivo
Settings: male, monkey, po, 20 mg/kg
Method: The nonclinical Pharmacokinetics (PK) of XL-647 was studied in mice, rats, dogs, and monkeys. Animals were dosed either once or daily over several days, as described in Table 21 and 22 below. A summary of results can also be found in Tables 21 and 22 below. […] Mean tmax values were approximately 4 to 8 hours, and plasma terminal half-lives ranged from 9.41 to 20.9 hours.
readout.type: Cmax (ng/mL)
Please state the figure in ng/mL; there is no need to write the unit.

Cmax for `COc1cc2c(Nc3ccc(Cl)c(Cl)c3F)ncnc2cc1OC[C@@H]1C[C@@H]2CN(C)C[C@@H]2C1` is 194
